Catalogue of melting point readings, one per entry.
ENDPOINT_NAME: melting point

> print(dat)
                                 smiles.str  endpoint.name  readout.value
1     CCOC(=O)c1nn(Cc2ccc(Cl)cc2C)c2ccccc12  melting point  120 to 122 °C
2       Nc1nc(-c2ccccc2)nc2nc(-c3ccco3)nn12  melting point       > 300 °C
3  COc1cc(NC(=O)OC(C)(C)C)c([N+](=O)[O-])cc1-c1ccc(F)cc1  melting point         250 °C
4            O=C(Nc1ccccc1)c1nc2ccccc2[nH]1  melting point  201 to 202 °C
5                       O=C(CNCCO)Nc1ccccn1  melting point  114 to 115 °C

* * *

ENDPOINT_NAME: melting point

> print(dat)
                                   compound  endpoint.name    readout.value
1        O=Cc1nn(-c2ccc(Cl)cc2)nc1-c1ccccc1  melting point    110 to 111 °C
2        CCCCCCCCCCCCCC=Cc1cc(C(=O)O)c[nH]1  melting point      90 to 96 °C
3  CC1CCCCN1CCC(CCN(C(C)C)C(C)C)(C(N)=O)c1ccccc1F (centres undefined)  melting point      90 to 91 °C
4  CC(=O)C1CCC2C3CCC4CC(=O)CCC4(C)C3C(O)CC12C (centres undefined)  melting point    227 to 233 °C
5       Nc1ccc(OCCCCN2C(=O)c3ccccc3C2=O)cc1  melting point    119 to 121 °C
6  COc1ccc(C2=NN(C3CCN(CCCCCCN4C(=O)c5ccccc5C4=O)CC3)C(=O)[C@@H]3CC=CC[C@H]23)cc1OC  melting point      39 to 44 °C
7  CC(C)c1ccc(C(C[N+](=O)[O-])SC(=S)N(C)C)cc1 (centres undefined)  melting point    119 to 120 °C
8  COc1cc(CCCCCCC=O)ccc1OCc1nc(-c2ccccc2)oc1C  melting point      64 to 65 °C
9  CCCCCCCCCCCCC#CC#CCCCCCCCC(C(N)=O)C(C)c1ccccc1 (centres undefined)  melting point  65.5 to 66.5 °C

* * *

Catalogue of melting point readings, one per entry.
ENDPOINT_NAME: melting point

> print(dat)
                                    compound  readout.value
 1  Cc1sc(N)c(C(=O)c2ccc(Cl)cc2)c1CN1CCN(c2cccc(F)c2)CC1  140 to 141 °C
 2  Cc1nc(-c2ccccc2)nc(N2CCCC2C(=O)N2CC(C)NC(C)C2)c1C (stereo not given)  160 to 162 °C
 3  CC(O)c1cc2c(c(Cl)n1)OCC2C (stereo not given)    67 to 68 °C
 4  CC(C)(C)OCC1CN(c2ccc3cc(O)ccc3c2)C(=O)O1 (stereo not given)  177 to 178 °C
 5               Cc1ccc2nc(CCl)[nH]c(=O)c2c1  263 to 265 °C
 6  C=CCC1COC(CC)(CC(=O)O)c2[nH]c3c(CC)cccc3c21 (stereo not given)    96 to 97 °C
 7      O=c1c(-c2cccc(F)c2)coc2cc(O)c(O)cc12         277 °C
 8        O=C(O)c1cnc2ccc(-c3ccc(Cl)cc3)cn12         206 °C
 9  CCCCNC(=O)NS(=O)(=O)c1ccc(CCNC(=O)N2Cc3c(Cl)cc(Cl)cc3C2=O)cc1  190 to 192 °C
10  CCCCOc1cc(CCC(=O)O)ccc1CCCc1ccc(OCC)c(OC)c1          66 °C

These measurements were taken from a melting point compilation (Tetko et al.; mined from patent text by program, amines drawn as free bases though some values may be those of a salt).
